Recorded values, source ChEMBL document CHEMBL1145498.

# ΔTm per entry for Serine/threonine-protein kinase 26 (Homo sapiens)
Numbers only, in °C.

- molecule: "CC(C)n1cnc2/c(=N/c3cccc(Cl)c3)nc(NCCO)[nH]c21"
  target-of-assay: "Serine/threonine-protein kinase 26 (Homo sapiens)"
  unit-symbol: "°C"
  ΔTm: 0.9
- molecule: "COc1cc2ncnc(Nc3ccc(NC(=O)c4ccccc4)cc3)c2cc1OC"
  target-of-assay: "Serine/threonine-protein kinase 26 (Homo sapiens)"
  unit-symbol: "°C"
  ΔTm: 0
- molecule: "CC(C)c1nn(-c2c(Cl)cccc2Cl)c2nc(Cc3ccc(OCCO)cc3)[nH]c(=O)c12"
  target-of-assay: "Serine/threonine-protein kinase 26 (Homo sapiens)"
  unit-symbol: "°C"
  ΔTm: 0.5

List the reported ΔTm of each molecule below.
1. O=C(O)c1cc(N(Cc2ccccc2O)Cc2cc(O)ccc2O)ccc1O
2. Cc1[nH]c(/C=C2\C(=O)Nc3ccc(S(=O)(=O)N(C)c4cccc(Cl)c4)cc32)c(C)c1C(=O)N1CCN(C)CC1
3. NCCNS(=O)(=O)c1cccc2c(Cl)cccc12
4. Cc1c2ccncc2c(C)c2c1[nH]c1ccccc12

Output:
0.4
-0.2
-0.1
4.6

----------
target-of-assay: Serine/threonine-protein kinase Nek2 (Homo sapiens) (UniProt P51955)
Sequence (whole entry): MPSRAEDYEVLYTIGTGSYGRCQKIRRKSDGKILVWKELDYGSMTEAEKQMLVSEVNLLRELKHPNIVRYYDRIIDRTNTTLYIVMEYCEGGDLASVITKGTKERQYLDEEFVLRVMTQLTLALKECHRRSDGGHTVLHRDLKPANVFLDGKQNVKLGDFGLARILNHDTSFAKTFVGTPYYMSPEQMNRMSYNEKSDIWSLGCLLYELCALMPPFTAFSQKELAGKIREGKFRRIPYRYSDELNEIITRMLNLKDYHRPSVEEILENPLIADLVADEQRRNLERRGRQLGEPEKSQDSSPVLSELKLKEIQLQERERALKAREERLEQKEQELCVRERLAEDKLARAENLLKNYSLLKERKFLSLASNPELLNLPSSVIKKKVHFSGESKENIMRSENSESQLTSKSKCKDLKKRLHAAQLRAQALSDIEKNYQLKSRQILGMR
measurement-type: ΔTm (°C)
Numbers only, in °C.

Some entries whose results are on file:
- smiles-entry: "O=C1C=C2C(=Nc3c2c2c(c4c3=NC3=C4CCC=C3)C=NC=2)CC1"
  ΔTm [°C]: 2.8
- smiles-entry: "N#C/C(=C1/Nc2ccccc2S1)c1ccnc(NCCc2cccnc2)n1"
  ΔTm [°C]: 1.9
- smiles-entry: "Cc1nc(Nc2ncc(C(=O)Nc3c(C)cccc3Cl)s2)cc(N2CCN(CCO)CC2)n1"
  ΔTm [°C]: 0.1
- smiles-entry: "COc1ccc(Cl)cc1NC(=O)Nc1cc(C)nc2ccccc12"
  ΔTm [°C]: 0.3
- smiles-entry: "O=C(Nc1cccc(Nc2cc(Nc3cccc(C(F)(F)F)c3)ncn2)c1)C1CC1"
  ΔTm [°C]: 2

Below is a list of compounds. For each, state its recorded ΔTm.
1. O=S(=O)(NCCNC/C=C/c1ccc(Br)cc1)c1cccc2cnccc12
2. C#Cc1cccc(Nc2ncnc3cc(OCCOC)c(OCCOC)cc23)c1
3. Cc1nc2sccn2c(=O)c1CCN1CCC(=C(c2ccccc2)c2ccc(F)cc2)CC1
4. Cc1ccc(NC(=O)c2cccc(N(C)C)c2)cc1NC(=O)c1ccc(O)cc1
5. Oc1cc(O)cc(/C=C/c2ccc(O)c(O)c2)c1

Output:
-0.2
1
0.1
0.3
1.1
